Tested on: HEK-293T
assay-details: Cytotoxicity against HEK293T cells assessed as reduction in cell viability at 1 to 10 uM after 24 hrs by XTT assay
Type: cell-based
applied-conditions: human
measurement-type: Activity

Check out these entries, answers already filled in.
molecule	observed-measurement
O=C1C=CC2(C=C1)C(c1ccccc1)=CC(=O)N2C(C(=O)NC1CCCCC1)c1ccc(Cl)cc1 (stereo not given)	Non-Toxic
COc1ccc(NC2(c3ccccc3)C(=O)N(C(C)(C)C)C(=O)/C2=C/c2ccccc2)cc1 (stereo not given)	Non-Toxic
COc1ccc(C2=C(c3ccccc3)C3(C=CC(=O)C=C3)N(C(C(=O)NC3CCCCC3)c3cc4c(cc3Br)OCO4)C2=O)cc1 (stereo not given)	Non-Toxic
COc1cc(N2C(=O)C(=Cc3ccccc3)C2(C(=O)NC(C)(C)C)c2ccccc2)cc(OC)c1OC (stereo not given)	Non-Toxic

Consider the additional molecule presented here.
For COc1ccc(N2C(=O)C(=Cc3ccccc3)C2(C(=O)NC2CCCCC2)c2cc(F)c(F)c(F)c2)cc1 (stereo not given) , write its Activity. Non-Toxic
